TGT: D(2) dopamine receptor (Homo sapiens)
Sequence (P14416 whole entry): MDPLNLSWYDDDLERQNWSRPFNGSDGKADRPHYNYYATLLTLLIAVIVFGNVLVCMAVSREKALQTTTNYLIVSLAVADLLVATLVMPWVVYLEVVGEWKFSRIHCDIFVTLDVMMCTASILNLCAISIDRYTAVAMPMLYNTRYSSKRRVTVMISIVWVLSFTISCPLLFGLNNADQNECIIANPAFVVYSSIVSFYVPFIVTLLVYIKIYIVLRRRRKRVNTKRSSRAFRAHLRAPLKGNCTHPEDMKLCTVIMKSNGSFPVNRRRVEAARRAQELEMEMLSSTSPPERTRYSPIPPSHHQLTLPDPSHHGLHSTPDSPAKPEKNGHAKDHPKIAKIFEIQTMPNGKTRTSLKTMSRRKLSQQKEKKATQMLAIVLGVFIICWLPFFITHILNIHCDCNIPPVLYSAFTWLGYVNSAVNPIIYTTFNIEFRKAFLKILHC
ASSAY INFO: Intrinsic activity at human dopamine D2L receptor expressed in CHOK1a cell membrane assessed as [125I]-cAMP accumulation after 20 mins
Type: functional, cell-based
QUANTITY MEASURED: Intrinsic activity

[
  {
    "MOLECULE": "CC(C)CCN1CCN2c3cccc4[nH]cc(c34)CC2C1 (centres undefined)",
    "Intrinsic activity": 96
  }
]

P: c1ccc(-c2cccc(CN3CCN4c5cccc6[nH]cc(c56)CC4C3)c2)cc1 (centres undefined)
Q: c1cc2c3c(c[nH]c3c1)CC1CN(CC3CCCCC3)CCN21 (centres undefined)
R: c1ccc(CN2CCN3c4cccc5[nH]cc(c45)CC3C2)cc1 (centres undefined)
Give the ascending ranking of the items by reported Intrinsic activity. Answer by writing out the labels in the requested order.
P, R, Q
(P: 35, R: 51, Q: 95)

----------
TGT: 5-hydroxytryptamine receptor 6 (Homo sapiens, UniProt P50406)
Sequence (P50406 whole entry): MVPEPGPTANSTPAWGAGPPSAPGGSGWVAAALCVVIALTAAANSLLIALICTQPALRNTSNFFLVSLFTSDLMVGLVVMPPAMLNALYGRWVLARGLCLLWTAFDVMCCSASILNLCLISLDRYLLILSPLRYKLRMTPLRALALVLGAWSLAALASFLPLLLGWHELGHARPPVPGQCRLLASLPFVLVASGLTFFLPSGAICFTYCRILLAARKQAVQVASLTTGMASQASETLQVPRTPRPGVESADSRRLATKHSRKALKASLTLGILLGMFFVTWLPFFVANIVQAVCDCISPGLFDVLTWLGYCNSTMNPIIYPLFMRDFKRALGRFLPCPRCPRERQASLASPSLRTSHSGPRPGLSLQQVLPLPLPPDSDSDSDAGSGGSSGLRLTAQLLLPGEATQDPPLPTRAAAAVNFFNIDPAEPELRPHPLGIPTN
ASSAY INFO: Displacement of [3H]LSD from human 5-HT6 receptor expressed in hamster BHK cells after 60 mins by scintillation counting analysis
Format: cell-based
pKi: −log10 of the molar value.
QUANTITY MEASURED: pKi

Example entries and their recorded answers appear below.
[
  {
    "MOLECULE": "Cc1ccccc1S(=O)(=O)n1cc2c3c(cccc31)N1CCNCC1C2 (stereo unspecified)",
    "pKi": 7.68
  },
  {
    "MOLECULE": "O=S(=O)(c1ccc(Cl)cc1)n1cc2c3c(cccc31)N1CCNCC1C2 (stereo unspecified)",
    "pKi": 6.74
  },
  {
    "MOLECULE": "O=S(=O)(c1cccc(F)c1)n1cc2c3c(cccc31)N1CCNCC1C2 (stereo unspecified)",
    "pKi": 9.12
  },
  {
    "MOLECULE": "O=S(=O)(c1ccc(F)cc1)n1cc2c3c(cccc31)N1CCNCC1C2 (stereo unspecified)",
    "pKi": 7.54
  },
  {
    "MOLECULE": "O=S(=O)(c1cccc(Cl)c1)n1cc2c3c(cccc31)N1CCNCC1C2 (stereo unspecified)",
    "pKi": 7.33
  }
]

A: Cc1ccc(S(=O)(=O)n2cc3c4c(cccc42)N2CCNCC2C3)cc1 (stereo unspecified)
B: COc1ccccc1S(=O)(=O)n1cc2c3c(cccc31)N1CCNCC1C2 (stereo unspecified)
Of A and B , which shows the smaller pKi value? Pick one and reply with its label.
A
(A: 7.02, B: 7.59)

P: Cc1cccc(S(=O)(=O)n2cc3c4c(cccc42)N2CCNCC2C3)c1 (stereo unspecified)
Q: COc1ccc(S(=O)(=O)n2cc3c4c(cccc42)N2CCNCC2C3)cc1 (stereo unspecified)
R: O=S(=O)(c1ccccc1)n1cc2c3c(cccc31)N1CCNCC1C2 (stereo unspecified)
List these items ordered by pKi, big to small. Answer by writing out the labels in the requested order.
R, P, Q

----------
ASSAY INFO: Clearance in human
Type: ADME, organism-based
STUDY CONDITIONS: in vivo
QUANTITY MEASURED: clearance (mL/min/kg)

a: c1ccc(-c2cccc(CN3CCN4c5cccc6[nH]cc(c56)CC4C3)c2)cc1 (configuration not stated)
b: O=S(=O)(c1cccc(F)c1)n1cc2c3c(cccc31)N1CCNCC1C2 (configuration not stated)
Of a and b , which shows the smaller clearance value? Pick one and reply with its label.
b
